Experiment: xn = mol fraction of the nth substance listed
Conditions: 288.15 K; 98.93 kPa; Liquid; x1 = 0.2
Numbers after ± are expanded uncertainties.
MEASUREMENT NAME: mass density
Remember to follow the number with its unit.

## Task Can you look up the measured mass density of OCCCO [propan-1,3-diol] + O for me?
## Result 1040.04 ± 1.4 kg/m3

## Task Subsequent entry: CC(O)CO (centres undefined) [1,2-propanediol] + O
## Result 1041 ± 1.4 kg/m3

## Task Next entry: OCC(O)CO [glycerol] + O
## Result 1145.78 ± 1.6 kg/m3

## Task Please do the same for CCCO [propan-1-ol] + O as well.
## Result 921.89 ± 1.2 kg/m3

---

Assay: xn = mol fraction of the nth substance listed
Details: 303.15 K; 98.93 kPa; Liquid; x1 = 0.03
± gives the expanded uncertainty stated by the source.
For each entry below, report its mass density value.

## Task Item OCCCO [propan-1,3-diol] + O has what recorded mass density?
## Result 1003.2 ± 1.4 kg/m3

## Task Continue with CC(O)CO (centres undefined) [1,2-propanediol] + O
## Result 1003.41 ± 1.4 kg/m3

## Task Continue with CCCO [propan-1-ol] + O
## Result 981.2 ± 1.3 kg/m3

## Task Then what about the compound OCC(O)CO [glycerol] + O ?
## Result 1028.03 ± 1.4 kg/m3

---

Test: xn = mol fraction of the nth substance listed
Settings: 283.15 K; 98.93 kPa; Liquid; x1 = 0.2
I'd appreciate it if you could supply mass density values for the items below.
// units = kg/m3; emit number, no label

## Task Could you share which mass density value was measured for CC(O)CO (centres undefined) [1,2-propanediol] + O ?
## Result 1043.92

## Task Next compound up: CCCO [propan-1-ol] + O
## Result 923.98

## Task Continue with OCCCO [propan-1,3-diol] + O
## Result 1042.35

## Task What do we get for OCC(O)CO [glycerol] + O ?
## Result 1147.94

---

Kindly supply the reported mass density values for the records listed here.
Test: xn = mol fraction of the nth substance listed
Conditions: 303.15 K; 98.93 kPa; Liquid; x1 = 0.2
# unit: kg/m3 | format: bare number

## Task Reported mass density, molecule CC(O)CO (centres undefined) [1,2-propanediol] + O : ____
## Result 1032.73

## Task Follow-up entry: CCCO [propan-1-ol] + O
## Result 914.04

## Task Please do the same for OCCCO [propan-1,3-diol] + O as well.
## Result 1032.25

## Task Please give the result for OCC(O)CO [glycerol] + O too.
## Result 1137.73

---

Answer each item with its documented mass density.
Experiment: xn = mol fraction of the nth substance listed
Settings: 298.15 K; 98.93 kPa; Liquid; x1 = 0.065
// return numeric value only (unit: kg/m3, not printed)

## Task mass density for OCC(O)CO [glycerol] + O ?
## Result 1061.17

## Task Param item: CC(O)CO (centres undefined) [1,2-propanediol] + O
## Result 1014.74

## Task Proceed to OCCCO [propan-1,3-diol] + O
## Result 1013.31

## Task Check CCCO [propan-1-ol] + O too.
## Result 969.94
